Attribution: PubChem BioAssay (NCI)

Assay: NCI Yeast Anticancer Drug Screen. Data for the rad50 strain (AID 155);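 further: 0% = growth of vehicle-only cultures of the same strain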
Conditions: S. cerevisiae rad50 strain growth inhibition; at 50.0 µM; active compounds read high
Protocol: Growth inhibition of yeast strains with defined genetic alterations is measured as a screen for potential anti-cancer activity. Selected strains with alterations in DNA damage repair or cell cycle control were exposed to compounds and growth inhibition was measured relative to vehicle treated controls. The strain used in this assay is rad50
This is part of a sample that, as a whole, favours compounds with a hit. Of some 79,000 tested, about 15% had one in any assay.
Here, each record is paired with measured growth inhibition data.
Answer format: numeric, % implied, no suffix.

Noted for CCC(=O)C(CC)c1ccccc1OC (stereo unspecified) : its growth inhibition reads 8.75

Quick note, growth inhibition for OCC1NC(CO)C(O)C1O (stereo unspecified) landed at 6.5

The value of growth inhibition measured for the compound CCO/C(O)=c1/s/c(=C(\C#N)c2nc3ccccc3[nH]2)n(-c2ccccc2)c1=N turned out to be 11.6

Lab note: CC(=O)[CH-]C(=O)c1ccccc1.CC(=O)[CH-]C(=O)c1ccccc1.CC[O-].O=C1C=C([O-])C(=O)c2ccccc21.[Ti+4] gave growth inhibition of 25.4

Data point: CCOC(=O)C(C)C(=O)C(C)C (stereo unspecified) ; growth inhibition = -1.65

Recorded result, COC(=O)c1ccc(Cl)cc1 , growth inhibition: 19.4

Sample NC(=O)C(=CN1C(=O)/C(=C/c2ccccc2O)SC1=S)C(N)=O ; growth inhibition observed: -21.6

The value of growth inhibition measured for the compound O=C(N/N=C/c1ccc(Cl)cc1)C(c1ccccc1)N1CCCCC1 (stereo unspecified) turned out to be 4.7

In plain terms, [Cl-].[Nd+3].[O-]/N=C(\c1ccccc1)c1ccccn1.[O-]/N=C(\c1ccccc1)c1ccccn1.[O-]/N=C(\c1ccccc1)c1ccccn1 has a documented growth inhibition of 50.1

In plain terms, Cn1c(=O)cc(CCl)c2ccccc21 has a documented growth inhibition of 26.9

For N=c1nccnn1O the compound record lists growth inhibition as 6.45

====

Assay: NCI Yeast Anticancer Drug Screen. Data for the mlh1 rad18 strain (AID 175)
Conditions: S. cerevisiae mlh1 rad18 strain growth inhibition; at 50.0 µM; active compounds read high
Compounds without any hit were thinned out: in the full panel of roughly 79,000, 15% have a hit.
Each entry gets no (0) if its growth inhibition stays under 30%, and yes (1) if its growth inhibition is 30% or above.

Known results for compounds:
{"Compound": "CC(=O)C1=CCC2c3[nH]c4ccccc4c3CCN2C1 (stereo not given)", "Class Name": "no (0)"}
{"Compound": "CC(C)[C@@H](C)[C@@]1(C)C[C@@H]1[C@@H](C)[C@H]1CC[C@@H]([C@@H]2CC=C3C[C@@H](O)CC[C@]3(C)C2=O)[C@]1(C)CCO", "Class Name": "no (0)"}
{"Compound": "CC(=O)Nc1ccc2c(c1)Cc1cc(Cl)c(Cl)cc1-2", "Class Name": "yes (1)"}
{"Compound": "CC(C)=Nn1cnc2nccnc2c1=O", "Class Name": "no (0)"}
{"Compound": "OCC[N-]CC[N-]CCO.[Cl][Co][Cl]", "Class Name": "yes (1)"}

Decide: growth inhibition of COC(=O)c1cc([N+](=O)[O-])c(Sc2ncnc3nc[nH]c23)c([N+](=O)[O-])c1 >= 30%? yes (1)

Is growth inhibition at least 30%? Consider O=C1CSC(c2ccc(Cl)cc2)N1c1ccc(-n2c(-c3ccccc3)nc3ccccc3c2=O)cc1 (stereo not given) no (0)

Determine whether measured growth inhibition meets or exceeds 30% for C=C(C)C(=O)OC1C[C@H](COC(C)=O)C2CC=C(CO)C2C2OC(=O)C(=C)[C@H]12 (stereo not given in full) no (0)

Could you tell me if the measured growth inhibition of O=C(NN1C(=O)C(Cl)C1c1cccc([N+](=O)[O-])c1)c1ccccc1O (stereo not given) reaches 30% or more? no (0)

Quick check: does Cc1nc(/C=C2\C(=O)C=Cc3ccccc32)c(O)o1 have growth inhibition greater than or equal to 30%? no (0)

Quick check: does CC/C(=N/NS(=O)(=O)c1ccc(C)cc1)c1ccc(O)cc1 have growth inhibition greater than or equal to 30%? yes (1)

Is growth inhibition for NC(=O)CO at or above 30%? no (0)

State whether the measured growth inhibition reaches 30%, counting equality as reaching it, for Cc1nc(N)[nH]c(=O)c1CCCN=Cc1ccccc1 yes (1)
